Origin of values: patent US20230212549A1

Target: Human recombinant FAP (Homo sapiens, UniProt Q12884)
Sequence (Q12884 whole entry): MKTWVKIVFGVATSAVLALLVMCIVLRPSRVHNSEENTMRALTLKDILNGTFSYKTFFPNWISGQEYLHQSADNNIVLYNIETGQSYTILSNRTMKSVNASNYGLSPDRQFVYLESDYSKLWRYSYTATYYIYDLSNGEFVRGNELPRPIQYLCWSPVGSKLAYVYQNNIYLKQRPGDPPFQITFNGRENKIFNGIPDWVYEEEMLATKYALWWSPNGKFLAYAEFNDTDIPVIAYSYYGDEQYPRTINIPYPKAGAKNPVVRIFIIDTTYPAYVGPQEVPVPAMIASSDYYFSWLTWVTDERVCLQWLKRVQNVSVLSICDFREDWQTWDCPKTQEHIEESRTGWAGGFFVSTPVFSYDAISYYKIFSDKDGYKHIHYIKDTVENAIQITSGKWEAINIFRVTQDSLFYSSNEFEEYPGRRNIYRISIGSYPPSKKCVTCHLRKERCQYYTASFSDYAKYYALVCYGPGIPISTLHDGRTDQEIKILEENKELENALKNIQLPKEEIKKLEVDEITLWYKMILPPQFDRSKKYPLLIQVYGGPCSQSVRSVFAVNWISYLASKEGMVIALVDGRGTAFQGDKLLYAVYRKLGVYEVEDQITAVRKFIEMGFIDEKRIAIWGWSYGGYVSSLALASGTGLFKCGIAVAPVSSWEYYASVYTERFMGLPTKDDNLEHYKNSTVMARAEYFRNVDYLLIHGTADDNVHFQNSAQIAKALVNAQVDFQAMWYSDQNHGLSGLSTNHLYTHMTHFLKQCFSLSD
Assay: FRET-based FAP protease activity assay
Assay type: biochemical
Parameters: purchased R&D systems 3715-SE
Details: pIC50 Category (Activity), FRET-based FAP protease activity assay, recombinant human FAP, 37° C.
pIC50: −log10 of the molar value. Numbered stars: 1 amine (or outer) side, 2 acyl side, 3 side chain; on linkers, the order of the positions; unused ones are H or OH. Bridge positions count the residues as written; N and C are the ends. Square brackets hold non-standard residues; d marks the D form. Peptide text beside a SMILES is read from it. * marks the point of attachment. Pro(4S-NH2) = N[C@@H]1CN[C@H](C(=O)O)C1; mXylylene = c1cc(C[*:1])cc(C[*:2])c1; Nphe = O=C(O)CNCc1ccccc1; Hexanoyl = CCCCCC(=O)*
Measured pIC50, listed per entry.

State its pIC50 for this compound: CCCCCC(=O)N[C@H]1CSCc2cccc(c2)CSC[C@@H](C(N)=O)NC(=O)CN(Cc2ccccc2)C(=O)[C@H](CCC(=O)O)NC(=O)[C@H]([C@@H](C)O)NC(=O)[C@@H]2CCCN2C(=O)[C@@H]2CCCN2C1=O [3BP-3360] (Hexanoyl-CPPTE[Nphe]C-NH2; linker 1-7 via mXylylene) < 6.00

State its pIC50 for this compound: `CC(=O)N[C@@H](CCO)C(=O)N[C@H]1CSCc2cccc(c2)CSC[C@@H](C(N)=O)NC(=O)[C@H](Cc2ccccc2)NC(=O)[C@H](CCC(N)=O)NC(=O)[C@H]([C@@H](C)O)NC(=O)[C@@H]2CCCN2C(=O)[C@@H]2CCCN2C1=O` 6.10 to 7.00

State its pIC50 for this compound: CCCCCC(=O)N[C@H]1CSCc2cccc(c2)CSC[C@@H](C(N)=O)NC(=O)[C@H](Cc2ccccc2)NC(=O)[C@H](CCC(=O)O)NC(=O)[C@H]([C@@H](C)O)NC(=O)[C@@H]2C[C@H](N)CN2C(=O)[C@@H]2CCCN2C1=O [3BP-3367] (Hexanoyl-CP[Pro(4S-NH2)]TEFC-NH2; linker 1-7 via mXylylene) 6.10 to 7.00
